# Experiment: Phase I/IIa clinical PK of oral psilocin-d10, plasma, noncompartmental analysis (Cohorts 1-6)
# Assay type: in vivo, human
# Condition context: human, plasma, po, 8 mg, 8 mg oral, Cohorts 2 and 3 NHV, pooled; read-out: Cmax Median
Readout name: Cmax (ng/mL)
Expressed in ng/mL, but write only the number.

Param item = [2H]C([2H])([2H])N(C([2H])([2H])[2H])C([2H])([2H])C([2H])([2H])c1c[nH]c2cccc(O)c12 ; retrieve measured Cmax.
17.1

* * *

# Experiment: Phase I/IIa clinical PK of oral psilocin-d10, plasma, noncompartmental analysis (Cohorts 1-6)
# Format: in vivo, human
# Condition context: human, plasma; 8 mg oral, Cohorts 2 and 3 NHV, pooled; read-out: Tmax Median
Readout name: Tmax

Param item = [2H]C([2H])([2H])N(C([2H])([2H])[2H])C([2H])([2H])C([2H])([2H])c1c[nH]c2cccc(O)c12 ; retrieve measured Tmax.
2 h
